The following compounds were reported with IC50 values on Protein deacetylase HDAC6 (Homo sapiens, UniProt Q9UBN7) in different studies.

Example entries begin here.
{"COMPOUND": "C[C@@H](NC(=O)c1cc2ccccc2n1C)c1ccc(C(=O)NO)s1", "IC50": "< 100 nM"}
{"COMPOUND": "O=C(NO)c1ccc(Cn2ccc(C3(c4ccc(F)cc4)CCCCO3)cc2=O)cc1 (stereo not drawn)", "IC50": "≤ 10 nM"}
{"COMPOUND": "N[C@@H](COCCCC(=O)c1ccon1)c1ncc(-c2ccccc2F)[nH]1", "IC50": "> 900 nM"}

// map O=C(NO)c1ccc(Cn2ccc(C3(c4ccc(F)cc4)CCCO3)c(F)c2=O)cc1 (stereo not drawn) to recorded IC50 (system: Protein deacetylase HDAC6 (Homo sapiens, UniProt Q9UBN7)) ≤ 10 nM

Form field: IC50 recorded for C[C@H](NC(=O)c1ccc(S(C)(=O)=O)cc1)c1ncc(C(=O)NO)s1 with Protein deacetylase HDAC6 (Homo sapiens, UniProt Q9UBN7) (enter value) 100 to 500 nM

Test system Protein deacetylase HDAC6 (Homo sapiens, UniProt Q9UBN7); read-out IC50; what value for CC(NC(=O)C1(c2ccc(Cl)cc2)CCC1)c1ncc(C(=O)NO)s1 (stereo not drawn) ? > 500 nM
